Origin of the recorded values: the domain aggregation screens of Martell et al. (2025)

Assay: soluble fraction after stress (log2 fold change); higher = more stays soluble; pooled small domains, quantitative proteomics;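 note: 20 min heating vs room temperature control held 20 min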
Conditions: stress: 75 degC
Property: soluble fraction (log2)
Enter the number alone.

stdin: May I ask what soluble fraction (log2) has been recorded for HMSKLQETEIPVALEVEKIPGLSNELKQKLLKIKPQTIGQASRISGITPAAISILMIYIKKNESISAVK ?
stdout: -1.9

stdin: Which value of soluble fraction (log2) has been reported for HMEVTLTLKSFGTAKVAVIKAIQSITGLGLMDAKKLVDAAPSVIKEKISPSEAEQYKKTLVDAGAEVEI in the records?
stdout: -2.31

stdin: So what does the record say about soluble fraction (log2) for HMNELTDKQILLFSNKLAHNIPFSSKYSKPGESYEEFAERLANELIDPQKVKLYKPYLEEVGFK ?
stdout: 0.788

stdin: Entry HMKEFEINSQWKPSLEVYDILSVKGGISRNFIEDSIPEFVLYWRGRGDKSNTWDSKFVQHVKRQWNFYSGL has what soluble fraction (log2)?
stdout: -2.43

stdin: Which soluble fraction (log2) is listed for HMKPLIIPLELMQRLSSDKQLEAGFNRFSKSKQHEFAAYIAAAKRVETKVKRLEKIIPLILSGEGLNDR ?
stdout: -2.35

stdin: What value of measured soluble fraction (log2) is listed for HMALTQEQLGQRLQDARKSVALTQQEVAEDLGLSRESLAQIEAGSRSVNSLEIVRLARLYGRSLSSILLE ?
stdout: -0.893

stdin: Request the reported soluble fraction (log2) associated with HMELPPLQPGQPIDGRVEQQIRAGYYVVSVRGRGYEFQLPESARPGDLLRMVYLNDHPRLTFALLRIDNAN
stdout: -1.5

stdin: Form field: reported soluble fraction (log2) of HMDLLVWRVADEDAGERIDKLVVDSLDDVSRTAVQQWIKDGLVTVNGKTVKPNYKAAAGDEVAVSVPEPE
stdout: 0.239

stdin: Query: soluble fraction (log2); subject: HMYPFSEETLKEKIREYLKTNRSINRRVLEREFYIRKQTALNWLNRLVDSGFLIKEGVRNSPVYFLAE
stdout: -0.884

stdin: Requested read-out: soluble fraction (log2). Entry: HMDGAPVTVIKNGEVDVATTMRVGLSASELMFKLRAAGVDEVQIVHRAVLEQNGQLTIIKYGEE
stdout: -2.03

stdin: Which measured soluble fraction (log2) value corresponds to HMNLNESVELGQELLSQALAQLGIRGELSPSTIDKLLAESSAKSMEELYADIGIGKRMPALVARHIFGLMD ?
stdout: -0.627

stdin: I have this sequence here, HMDPALSPAEQKIWDLLAAGETHIDDLVRASGLPVATVNSALVMMEMKEVISQVAAKTYRRNRRN , and I need its recorded soluble fraction (log2).
stdout: -1.3

stdin: I'd like to know its soluble fraction (log2). The sequence in question is HMKLSKKVTDFLAQMPSKSISPKMLANNLGLADDAGDYKHLLKTIAQLEESKAIEVTAAGNIALPQPE
stdout: -0.162

stdin: Need soluble fraction (log2) of HMRRFEFSDGSSNKFWQITRDGTSLTVTFGKIGTAGQTQLKELATEAAAIAEHDKLVKEKTKKGYAEVG , thanks.
stdout: -0.174

stdin: soluble fraction (log2) lookup needed for HMEKNILPDTSPEKQYEFATSFLKVGDYSTAERAFREFVINNSEHKLAGNAQYWYAETFRIRQ , thanks.
stdout: 0.261

stdin: Which measured soluble fraction (log2) value corresponds to HMDHAHWEEHEVKLLLTLAIQEKEKFNWNQFGLTREGWRNIYPHFPQYSRKQINNKFDFLKQKYRAWKDS ?
stdout: -1.8

stdin: Can you look up the measured soluble fraction (log2) of HMPVSLHEQIQQARIRAEQNVEGISLLLQVNPKYYEQIEAGDVIPDQDLLKRISSLFGWNYHEMLHREKSS for me?
stdout: -0.781

---

Experiment: soluble fraction after stress (log2 fold change); higher = more stays soluble; pooled small domains, quantitative proteomics
Conditions: stress: 75 degC
Answer each item with its documented soluble fraction (log2).
# print the numeric value only

stdin: # query: soluble fraction (log2) of entry HMQVPWYQRLKEKRLEYGVSQNKLATHIGISRQYMSEIETGKVTPSDSLQATLFDILEQFNPDA
stdout: -0.817

stdin: Look at this sequence and give its reported soluble fraction (log2). HMVAPNSEATTKLIIEKTKYANESPAILMGFKATATMLMAKHVVLPTSKYAYFNEGRALLEKAIK
stdout: 0.154

stdin: // lookup soluble fraction (log2) for HMVLSVRERMGIVLEKVNTETFTDFKELFTVEEGRAGAIVSLLAILQLMKDSLIQLVQNEPNGPIYVKAA
stdout: -0.879

stdin: Entry under review: HMVNDQSIYASEGYVHIRSGKPVSLRIYTILGALYRHEERLVGDHVIALPRGLYIVVLNHTAKKIMV . Reported soluble fraction (log2)?
stdout: -0.657

stdin: Field request: soluble fraction (log2) | item: HMSTKRGEILEFLKDFSARKGYAPSVREIMQAVGLKSTASVHYHLSELHKAGLITVDGTKNRAISLA
stdout: -1.11

stdin: Look up soluble fraction (log2): HMTPKVTVPDVTGQTFSSAKQILESLGFTVKQQGSTDETDQVIDQNPTSGEADKGATITLTTKSS
stdout: 0.0908

stdin: Requested read-out: soluble fraction (log2). Entry: HMRIHKQLGDRIRNLRLSSGMNQEELAFKSGISAAHLGQIERGLKSPTISTIQKIAKALNVTLPILF
stdout: -0.631

stdin: Fill in: soluble fraction (log2) of HMTANTLDLTYSQFLENVKNGSVNDVTIRGNNVSGNFSDGRKFKTYAVNDPTLVEKLTKMGVNISAAPL is ___
stdout: 0.405

stdin: Look up soluble fraction (log2): HMKLRKINLIGIFGSKTAPSALVRLTNGRVLKVGLGELLDGGRVTAIGRSSLTYNKSGKSITLNMPI
stdout: -4.08

stdin: Using the record for HMGTQIKSPMPGTILDVRVNVGDTVKEGDILMILEAMKMENEILAPVSGKVAAIQVSKGTAVNSGDLLAVL , report its soluble fraction (log2).
stdout: -0.0689

stdin: Using the record for HMFYNDLINFDVFRDSRKIGKIENINSRLPQPVFEIMYDSRIVLIPIHEDFIRKIDKVNNIIYLDIPDGLL , report its soluble fraction (log2).
stdout: -2.99

stdin: Given the sequence HMDSLIEYENERSLRRLINENLSDYERTVWWLYYAGADAAHIAEQTGRSKRSAENAITRVRRKLRALITQS , what is its reported soluble fraction (log2)?
stdout: -1.33

stdin: For HMKSPVKLILRGSIYHIKISAVVNGQRIFVRESSHTTDKREAEQYANKRFAQLVEETEFRTN , what is its reported soluble fraction (log2)?
stdout: -1.18

stdin: Given the sequence HMEKIIGQIQINQRGNGYVIVPNVKDDIFVKRENLNSARQGDRVAVQLLSRPNQKPEGLVQEVLERGQ , what is its reported soluble fraction (log2)?
stdout: 0.637

stdin: Please look up its soluble fraction (log2): HMDVKPWERQEGESAKAFEAFTIYAGLGADRSLRAVAQQLGKSKTLMDRWSSTYSWVARAAEYDADLQRK
stdout: -0.489

stdin: Any idea what soluble fraction (log2) was measured for HMTIYPFNPNYLKDYQAYRVGLSLKEIDALLDFRSSGQWINSAEDFQRITGVSDSVLEQLIPYFKFS ?
stdout: -2.98

stdin: Dear colleague, I am looking for the recorded soluble fraction (log2) of the following sequence: HMNSKMTYSELVTNITNKEVESIKISSTGSTASVKLKNSKSEKEVNIPSLDSFMSYTEEYLKTGDFTLDEE
stdout: 0.586

stdin: Looking for the measured soluble fraction (log2) of HMTNADRYIGQEATVTEKISNELSTGAVRIGGLVWTARTVDNSEAEEGERVTVEAIEGAKLLVKRR , can you help?
stdout: 0.132

stdin: # input sequence: HMALLSDEERIATVFAARLGGYSHQEIYKLLQDRFGPSLPAAYSEKSVLTDLQTALSQVPSL ; wanted: its soluble fraction (log2)
stdout: -0.814

stdin: Dear colleague, I am looking for the recorded soluble fraction (log2) of the following sequence: HMNFFQEIGNSILIELNKKNWTQSMFAHKIGVSDEVFKQIVQGKKALNAVEIAKIANTLDVDPEKLLRK
stdout: -1.08

stdin: What does the data say about its soluble fraction (log2)? Entry: HMAVSNWQKLVSSIQTQLKILALYHGPEDGIYGPNTRSAIMLYEENIGLPVTGEPSRELLAHMLDQTD
stdout: -1.64

stdin: Can you share its soluble fraction (log2)? I mean this sequence: HMGAYITYEVKPGDTLWDIANKFPGVSADNIKTWNKVDELIKAGERLKINTQTITDYSPDKYPS
stdout: -0.242

stdin: # input sequence: HMLLLHINQMGVTEFSQLELNHVRSWLANLQIKGAARSSITRRVVSVRAFTYWGAKNGWLASDIGRDLVAP ; wanted: its soluble fraction (log2)
stdout: -0.459

stdin: Given the entry HMTKQRSIILDLLKANQDRHLTAEEMLELLNQNHTPVSKATLYRYLDMLVSQNAVRKFIIDDQPSAGYQYL , report its measured soluble fraction (log2).
stdout: -2

stdin: Recorded soluble fraction (log2) for HMSIGPQMAGRRVLSGDLIARLEAFEGTVVLGRGVAREDALLIATQAGHVRWEPASRRLWVDSTA , please?
stdout: -2.38

stdin: Requested read-out: soluble fraction (log2). Entry: HMENMRLILASNLRRIREERRLSLNKVSELTGVSKSMLGQIERGESNPTLQTVWKIANGLRVSLTDLTEVP
stdout: -2.66

stdin: Given the sequence HMEETLRALAKKISEKVLKSGRSTTLEPMNPYERRIIHSAVSEIEGVSSKSVGEEPYRKVVISSDNP , what is its reported soluble fraction (log2)?
stdout: 0.0756

stdin: Please look up its soluble fraction (log2): HMETPSNTAGITHATSDGYIFKGESDIIGRNSFGFIVKHGSHNHIIPFDSLRGTKWEYLINKYT
stdout: 0.000248

stdin: Form field: reported soluble fraction (log2) of HMETKQYIVEAQDEGTRLDVYLTKELGQSRSYVQSLVKEGHVQVNGKTGKSNLKLSSSSEILVTIPEVQ
stdout: 0.067

stdin: # query: soluble fraction (log2) of entry HMVEPTDFTYLKAEVETAKALKQADYTVATWKSFAGELAEAEEVIAKTDASQAEVNEALSHLQAAEKELV
stdout: 0.23

stdin: Give its soluble fraction (log2) value. Item: HMTQGIDQISFSQFLDKVQSGEVTDVRISGSDITGTLKTGGKFETVAGNYEKIWDLLRENKVVFVVDSP
stdout: 0.332

stdin: Need soluble fraction (log2), item HMKKILITGNSGYIGSHLSKMLENDYEVHGLDIRQPQHPVAKFYEQDINRPINIEEEYDAVIHLAALV
stdout: -0.348

stdin: // soluble fraction (log2) lookup, key: HMTDKLIAYSVDGILNVITSEAQSVKVYAIDGRLVRILQLGEGRNEVSGLAKGIYIVDNRKVAV
stdout: -2.71
